meta.source: paper PMC8164773

system: SARS-CoV-2; format: cell-based; conditions: read-out: EC50 +CP
measurement type: pEC50
Conceptually, pEC50 converts a concentration in mol/L into minus its log10.

Give reported pEC50 value for COc1cccc2[nH]c(C(=O)N[C@@H](CC3CC3)C(=O)N[C@H](C=O)C[C@@H]3CCNC3=O)cc12
6.57
